tested on: Chordin-like protein 2 (CHRDL2); experiment: CHRDL2 small-molecule binders, primary screen, biochemical, small-molecule microarray, 635 nm fluorescence (AID 1126); conditions: small-molecule microarray binding, fluorescence 635 nm; higher = more signal;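 also: printed compound slides probed with Chrdl2 protein at 4 µg/mL for 1 h at 4 C; score merges 667 nm emission intensity with signal to noise over three replicate slides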
Decide using composite z-score: a value greater than or equal to -0.6 is Yes, a smaller one is No.

>>> category("CCCC=C(CCC)[C@@H](NP(=O)(c1ccccc1)c1ccccc1)c1ccc(C(F)(F)F)cc1")
"Yes"
>>> category("COC(=O)[C@@]1(Cc2ccc(F)cc2)[C@H]2c3cc(C(=O)N4CCCC4)n(CCc4c[nH]c5ccc(OC)cc45)c3C[C@H]2CN1C(=O)c1ccccc1")
"Yes"
>>> category("C=CC[C@]1(C(=O)N(C)C)N=C(c2ccc(OCCCO)cc2)O[C@H]1c1ccccc1N=[N+]=[N-]")
"No"
>>> category("CON(C)C(=O)C=C1C[C@@H](c2cccc(Cl)c2)O[C@@H](c2cccc(Cl)c2)O1")
"Yes"
>>> category("CC[C@H]1C2=C3C(CC[C@H]4C(OCc5ccc(F)cc5C(F)(F)F)OC[C@](C)([C@@H]34)N(C(=O)OC(C)(C)C)C2)C2COC(=O)OCC21 (stereo partly drawn)")
"No"
>>> category("NC(=O)N1C(=O)C2C(C1=O)C1C=C(CCCO)C2C(c2cccs2)N1Cc1cc2c(cc1Br)OCO2 (stereo not drawn)")
"No"
>>> category("CC(C)CN1C(=O)[C@@]2(Cc3ccccc31)c1ccccc1C(=O)N(Cc1ccccc1C(F)(F)F)[C@H]2c1ccc(CO)cc1")
"No"

----------
experiment: anti-His antibody binders, primary screen, artefact control for SMM control protein annotation, biochemical, small-molecule microarray, 635 nm fluorescence (AID 1128); conditions: anti-His Alexa647 antibody binding, higher = more signal;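 also: score merges feature fluorescence with signal-to-noise for each printed compound spot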
Here, each record is paired with measured composite z-score data.
reported.endpoint: composite z-score

>>> result("CC(C)c1ccc(NN2C(C(O)c3ccco3)C=CC3C(=O)N(c4ccccc4)C(=O)C32)cc1 (centres undefined)")
1.26
>>> result("CC=CC(O)C1C=CC2C(=O)N(C)C(=O)C2N1N1CCCCC1 (centres undefined)")
0.523
>>> result("CC(C)N1CC=CC23O[C@@H]4C=CCCOC(=O)C4[C@H]2C(=O)N(CCO)[C@@H]3C1=O (some centres undefined)")
-0.517
>>> result("CN(C)CCCN1C(=O)[C@@]2(c3ccc([N+](=O)[O-])cc3)CC(=O)N(CC34CC5CC(CC(C5)C3)C4)[C@@H]2c2ccc(CO)cc21")
1.98
>>> result("COCCOC(=O)N1C(=O)[C@@]2(c3cc(C#CCNC(N)=O)ccc31)[C@H](C(=O)N1CCCCCCC1)[C@H]1C(=O)O[C@H](c3ccccc3)[C@H](c3ccccc3)N1[C@@H]2c1ccc(O)cc1")
-0.269
>>> result("O=C1C2C=CC(C(O)c3cc(C(F)(F)F)cc(C(F)(F)F)c3)N(Nc3ccc([N+](=O)[O-])cc3)C2C(=O)N1c1ccccc1 (centres undefined)")
0.338
>>> result("COC(=O)[C@H](Cc1ccccc1)N1CC(/C=C/C2CC2)=C[C@@H]1[C@@H](O)Cc1ccccc1")
0.303
>>> result("C[C@@H](OCc1ccccc1)C1NC(=O)[C@@]23C(=O)N[C@@H](Cc4ccccc4)C2[C@H](C)[C@@]2(C)O[C@H]2C3/C=C/C/C=C\\CNC(=O)CNC1=O (some centres undefined)")
0.413
>>> result("CCOC(=O)[C@H]1C/C=C/C[C@H](C(=O)OCC)C(=O)O[C@H]2[C@@H](OC)O[C@H](CO)[C@@H](OC(=O)CCc3ccccc3)[C@@H]2OC1=O")
0.522
>>> result("C=CC[C@@]12N=C(c3ccc(OCCCO)cc3)O[C@@H]1c1ccccc1N(CCS(=O)(=O)c1ccccc1)C2=O")
0.954
>>> result("C=CC[C@@]1(C(=O)O)N=C(c2ccc(OCCCO)cc2)O[C@@H]1c1ccccc1")
3.53
>>> result("CC(C)(C)OC(=O)CC[C@]1(C(=O)O)N=C(c2ccc(OCCCO)cc2)O[C@H]1c1ccccc1")
0.548
>>> result("COCCCNC(=O)[C@@]1(Sc2ccc(C)cc2)CC(=O)N(C2Cc3ccccc3C2)[C@@H]1c1ccc(CO)cc1I")
-0.961
>>> result("C[C@]1(C(=O)O)c2ccccc2C(=O)N(Cc2ccccc2)[C@H]1c1ccc(CO)cc1")
-1.17
>>> result("O=C1c2ccccc2[C@](Cc2ccccc2I)(C(=O)NCCN2CCOCC2)[C@H](c2ccc(CO)cc2)N1Cc1ccccc1")
0.0765
>>> result("Cc1ccc(S[C@]2(C(=O)NCCN3CCOCC3)CC(=O)N(Cc3ccccc3C(F)(F)F)[C@@H]2c2ccc(CO)cc2I)cc1")
0.771
>>> result("C=C[C@H](COC(C)=O)NS(=O)(=O)c1ccc(Br)cc1")
0.207
>>> result("CC(=O)N1Cc2ccccc2C[C@]2(N=C(c3ccc(OCCCO)cc3)O[C@@H]2c2ccccc2)C1=O")
2.62
>>> result("O=C(O)[C@H]1C[C@H]2C(=O)N3CCC[C@H]3C(=O)N2[C@H]1c1cccc(OCCO)c1")
2.79
>>> result("CCCCN1CC=CC23O[C@@H]4C=CCOC(=O)[C@@H]4[C@H]2C(=O)N(C(C)CO)[C@@H]3C1=O (some centres undefined)")
-0.461
>>> result("NCCCCCNC(=O)[C@@H]1C[C@@H]2C(=O)N[C@@H](CCCCN)C(=O)N2[C@@H]1c1cccc(OCCO)c1")
2.33
>>> result("[N-]=[N+]=Nc1ccccc1[C@H]1OC(c2ccc(OCCCO)cc2)=N[C@@]1(CCS(=O)(=O)c1ccccc1)C(=O)N1CCCCC1")
2.65
>>> result("CCOC(=O)C[C@H]1[C@H](OC(=O)c2ccccc2-c2ccccc2)[C@@H](NC(=O)CC(C)C)c2cc(OCCCO)ccc2N1C(=O)c1ccc2ccccc2n1")
-0.123
>>> result("COc1cc2c(cc1O)C(C)N(Cc1cc3c(cc1Br)OCO3)CC2 (centres undefined)")
-0.408
>>> result("COCC(=C=CC[C@H](O)c1cccc(OCCO)c1)C[C@H](O)c1ccccn1")
0.344
>>> result("C=CCOC(=O)[C@@H]1[C@H]2C(=O)O[C@H](c3ccccc3)[C@H](c3ccccc3)N2[C@H](c2ccc(OCCOC(=O)[C@H]3C[C@H]4C(=O)N[C@@H](CCCCN(C)C)C(=O)N4[C@H]3c3cccc(OCCO)c3)cc2)[C@@]12C(=O)Nc1ccc(I)cc12")
2.94
>>> result("CC(C)(C)OC(=O)CC[C@]1(C(=O)O)N=C(c2ccc(OCCCO)cc2)O[C@H]1c1ccccc1CN=[N+]=[N-]")
0.401
>>> result("O=C1O[C@@H](c2ccccc2)[C@@H](c2ccccc2)N2[C@@H](c3ccccc3OCCO)[C@]3(C(=O)Nc4ccccc43)[C@@H](C(=O)NC[C@H](O)c3ccccc3)[C@H]12")
-0.27
>>> result("C=CCC(OC(C)=O)[C@@H]1[C@@H](N(Cc2ccc(-c3ccccc3)cc2)C(=O)c2cccc3ccccc23)c2cc(OCCCO)ccc2N1C(=O)Cc1ccc2ccccc2c1 (some centres undefined)")
0.23
